- procedure.text: melting temperature; fluorescence melt of hairpins on a sequencing array, two-state fit, raised by 9.35 °C to match UV melts
- run.parameters: sodium 0.088 M
parameter.measured: Tm (°C)

> print(dat)
                                     seq  parameter.measured  value.measured
1  GTTGGCGGAAACGTCGAC ((.(.((....)).).))                  Tm            47.6
2  GGCTACGGAAACACAGCC ((((..(....)..))))                  Tm            35.5
3  GTGTCTTCGAAAGAACAC (((..(((....))))))                  Tm            32.9
4  GGCATCGGAAACGGTGTC (.((.((....)).)).)                  Tm            44.8
5  GTGATTGGAAACAATCGC (.(((((....))))).)                  Tm            49.1
6  GGGTACGAAAGTACGCCC ((((((....)))..)))                  Tm            46.1

====

- procedure.text: melting temperature; fluorescence melt of hairpins on a sequencing array, two-state fit, raised by 9.35 °C to match UV melts
- run.parameters: sodium 0.088 M
# Tm annotations
parameter.measured: Tm

> print(dat)
                                      seq  value.measured
 1  GCGAGGCGAAAGCTACGC (((..((....))..)))           62 °C
 2          GAATTGAAAAATTC (((((....)))))         31.7 °C
 3  GCGCGGACGAAAGTCCGC (((..(((....))))))         63.7 °C
 4  GTGCGCGGAAACGTGCAC ((((.((....)).))))         67.5 °C
 5  GGACCCGGAAACGGACCC ((..(((....)))..))         32.7 °C
 6  GGGTGGCGAAAGCCTCCC (((.(((....))).)))         66.2 °C
 7      GATCACTACCGTGATC ((((((....))))))         55.3 °C
 8  GCCAATCGAAAGATAGGC (((.(((....))).)))         52.1 °C
 9      GATCTAGACATAGATC ((((((....))))))         47.9 °C
10  GCGTGACCGAAAGGTCGC (((..(((....))))))         51.6 °C
11    GTGTCCCGAAAGGGCAC (((.(((....))))))         65.2 °C
12  GTGCACGGAAACACGCAC ((((..(....)..))))         41.1 °C

====

- procedure.text: melting temperature; fluorescence melt of hairpins on a sequencing array, two-state fit, raised by 9.35 °C to match UV melts
- run.parameters: sodium 0.088 M
Classes (Tm): group 1 = under 40 °C, group 2 = from 40 °C up to 50 °C, group 3 = 50 °C and over

> print(dat)
                                      seq  classification
 1              GCGGCCCTCCGC ((((....))))         group 3
 2  GAGTGCCGAAAGGCTCTC (((.(((....))).)))         group 3
 3  GGTATGGGAAACCATACC (((((((....)))))))         group 3
 4      GATCGCAAAGGCGATC ((((((....))))))         group 3
 5  GCCATTACGAAAGTAGGC (((..(((....))))))         group 2
 6  GCCTTCGAAAGAACCGGC ((((((....)))..)))         group 1
 7      GATCTGATAACAGATC ((((((....))))))         group 2
 8  GAACCCGAAAGGGTTTTC ((((((....)))..)))         group 3
 9  GACAACGAAAGTTTAGTC ((((((....)))..)))         group 1
10  GTGGACGAAAGTCGACAC ((((((....)))..)))         group 2
11  GTGTGCGGAAACGCACGC (.(((((....))))).)         group 3
12      GAACCGGAAACGGTTC ((((((....))))))         group 3
13  GTATCGGGAAACCGATGC (.(((((....))))).)         group 3
14  GCTAAGGGAAACCCTAGC ((((.((....)).))))         group 2
15  GACCGAACGAAAGTTGTC (((..(((....))))))         group 1
16      GATCTCCGTGGAGATC ((((((....))))))         group 3
17  GTCTGCGAAAGCAACGAC ((((((....)))..)))         group 2
18  CGTGGACGGAAACGTACG (((..(((....))))))         group 1
